- Tested on: PC-12
- test_protocol: Recovery of NAD+ in hydrogen peroxide treated PC12 cells at 1 uM relative to control
- Format: functional, Rattus norvegicus
quantity_name: Activity (%)
Enter your answer as a number in %; do not include the unit.

# input Which measured Activity value corresponds to O=C1NC(=O)c2c1c1c(c3[nH]c4ccc(-c5csc(CNC(=O)C6CC6)n5)cc4c23)CCC1 ?
# output 11

# input Which measured Activity value corresponds to O=C(NCc1nc(-c2ccc3[nH]c4c5c(c6c(c4c3c2)C(=O)NC6=O)CCC5)cs1)OCc1ccccc1 ?
# output 17

# input Which measured Activity value corresponds to CC(C)(C)C(=O)OCc1nc(-c2ccc3[nH]c4c5c(c6c(c4c3c2)C(=O)NC6=O)CCC5)cs1 ?
# output 14

# input Which measured Activity value corresponds to O=C1NC(=O)c2c1c1c(c3[nH]c4ccccc4c23)CCC1 ?
# output 30

# input Which measured Activity value corresponds to O=C(CBr)c1ccc2[nH]c3c4c(c5c(c3c2c1)C(=O)NC5=O)CCC4 ?
# output 32

# input Which measured Activity value corresponds to CC(C)C(=O)NCc1nc(-c2ccc3[nH]c4c5c(c6c(c4c3c2)C(=O)NC6=O)CCC5)cs1 ?
# output 10

# input Which measured Activity value corresponds to CCNC(=O)NCc1nc(-c2ccc3[nH]c4c5c(c6c(c4c3c2)C(=O)NC6=O)CCC5)cs1 ?
# output 15

# input Which measured Activity value corresponds to O=C1NC(=O)c2c1c1c(c3[nH]c4ccc(-c5csc(-c6ccno6)n5)cc4c23)CCC1 ?
# output 11

# input Which measured Activity value corresponds to CC(C)(C)S(=O)(=O)Cc1nc(-c2ccc3[nH]c4c5c(c6c(c4c3c2)C(=O)NC6=O)CCC5)cs1 ?
# output 33

# input Which measured Activity value corresponds to CC(=O)NCc1nc(-c2ccc3[nH]c4c5c(c6c(c4c3c2)C(=O)NC6=O)CCC5)cs1 ?
# output 20

# input Which measured Activity value corresponds to CC(=O)Nc1nc(-c2ccc3[nH]c4c5c(c6c(c4c3c2)C(=O)NC6=O)CCC5)cs1 ?
# output 10

# input Which measured Activity value corresponds to CNc1nc(-c2ccc3[nH]c4c5c(c6c(c4c3c2)C(=O)NC6=O)CCC5)cs1 ?
# output 22

# input Which measured Activity value corresponds to Br.NCc1nc(-c2ccc3[nH]c4c5c(c6c(c4c3c2)C(=O)NC6=O)CCC5)cs1 ?
# output 20

# input Which measured Activity value corresponds to CCCC(=O)NCc1nc(-c2ccc3[nH]c4c5c(c6c(c4c3c2)C(=O)NC6=O)CCC5)cs1 ?
# output 19

# input Which measured Activity value corresponds to O=C1NC(=O)c2c1c1c(c3[nH]c4ccc(-c5csc(CNC6O[C@H](CO)[C@@H](O)[C@H](O)[C@H]6O)n5)cc4c23)CCC1 (stereo partly drawn) ?
# output 0

# input Which measured Activity value corresponds to CC(=O)c1ccc2[nH]c3c4c(c5c(c3c2c1)C(=O)NC5=O)CCC4 ?
# output 35

# input Which measured Activity value corresponds to Cc1nc(-c2ccc3[nH]c4c5c(c6c(c4c3c2)C(=O)NC6=O)CCC5)c(Br)s1 ?
# output 16

# input Which measured Activity value corresponds to NC(CCCc1nc(-c2ccc3[nH]c4c5c(c6c(c4c3c2)C(=O)NC6=O)CCC5)cs1)C(=O)O.O=C(O)C(F)(F)F (stereo not drawn) ?
# output 7
